All values here come from patent US20060069132A1.

# Tested on: morningglory
# TEST: Test C pre-/postemergence herbicide test
# Assay type: in vivo, Ipomoea coccinea
# Parameters: key: 0 = no effect, 100 = complete control
# EXPERIMENTAL_PARAMETERS: 500 g ai/ha; scale 0 to 100 (0 no effect, 100 complete control); visual, 12 to 14 days; preemergence
Task for the reader: assign each of the following molecules its reported Plant response rating, Morningglory.
The response must contain the number and no unit.

# molecule CCn1nc(C(C)(C)C)cc1C(=S)Nc1cc(C(=S)N(C)C)ccc1F ; its Plant response rating, Morningglory = 10

# molecule CCNC(=O)c1cccc(NC(=O)c2sc(C(C)(C)C)nc2CC)c1 ; its Plant response rating, Morningglory = 10

# molecule CCn1nc(C2(C)CC2)cc1C(=O)Nc1cc(C(=O)N(C)C)ccc1F ; its Plant response rating, Morningglory = 100

# molecule CCc1nn(C(C)(C)C)nc1C(=O)Nc1cccc(C(=S)N(C)C)c1 ; its Plant response rating, Morningglory = 100

# molecule CCNC(=O)c1cccc(NC(=O)c2sc(C(C)(C)C)nc2CC)n1 ; its Plant response rating, Morningglory = 0
